# reported GI50; entries follow
Tested on: T-47D breast
Assay: NCI tumour cell line growth inhibition, 48 h
measured endpoint: GI50

>>> result("CNC(=O)c1cc(Oc2ccc3nc(NC(=O)Nc4ccc(CN5CCOCC5)c(C(F)(F)F)c4)sc3c2)ccn1")
"1.53 µM"
>>> result("Cc1cc(S(=O)(=O)/N=C(\\N)Nc2cccc(O)c2)c(SCc2ccccc2)cc1Cl")
"19.4 µM"
>>> result("O=c1cc(-c2ccc(Cl)cc2)[nH]c2ccccc12")
"63.2 µM"
>>> result("Cc1nc2ccccn2c1NC(=O)NN1C(=O)CSC1c1ccc(Cl)cc1 (centres undefined)")
"> 100 µM"
>>> result("N#C/C(=C\\c1ccc(O)c(O)c1)C(=O)NCc1ccc(C(F)(F)F)cc1")
"8.72 µM"
>>> result("O=C(COc1ccc(/C=C2\\Oc3ccc4ccccc4c3C2=O)cc1)c1ccc([N+](=O)[O-])cc1")
"2.85 µM"
>>> result("COc1ccc(-c2nn(-c3cccc(Cl)c3)cc2/C=C2\\NC(=S)N(c3ccc(Cl)cc3)C2=O)cc1")
"3.61 µM"
>>> result("Cc1nnc(C[C@@H]2C=C(c3ccc(Cl)cc3)c3ccccc3-n3c(C)nnc32)o1")
"0.719 µM"
>>> result("CCOC(=O)/C(=C/CC/C(C)=C/CC/C(C)=C/CCc1ccoc1)CC(=O)N1CCCCC1")
"2.37 µM"

* * *

# reported TGI; entries follow
Tested on: MDA-MB-231 breast
Assay: NCI tumour cell line growth inhibition, 48 h
measured endpoint: TGI (µM)

>>> quantitative_result("Cc1cc(OCc2nc(N)nc(N)c2-c2ccc(Cl)c(Cl)c2)ccc1[N+](=O)[O-]")
7.24
>>> quantitative_result("Nc1nc(N)c2c(n1)NC(c1sc(Cl)nc1Cl)CC(c1ccccc1)=N2 (stereo not given)")
16.5
>>> quantitative_result("O=C(COc1ccc(/C=C2\\Oc3ccc4ccccc4c3C2=O)cc1)c1ccc([N+](=O)[O-])cc1")
71.9
>>> quantitative_result("CC(=O)O[C@@H]1[C@H](OC2CCCCC2(c2ccccc2)c2ccccc2)O[N+]([O-])=CC12CCCCC2 (stereo not given in full)")
30

* * *

System: SK-MEL-5 melanoma
Test: NCI tumour cell line growth inhibition, 48 h
measured endpoint: TGI (µM)

>>> quantitative_result("Cc1cc(F)c(C(=O)Nc2cccc(-c3nncn3C(C)C)n2)cc1-n1cnc(C2CC2)c1")
23.6
>>> quantitative_result("Oc1ccc2ccccc2c1CCc1c(O)ccc2ccccc12")
25.7
>>> quantitative_result("Cc1ccc2nc(NC(=O)C(=O)C(C(=O)c3ccc4ccccc4c3)C3OC(=O)c4ccccc43)sc2c1 (stereo not given)")
22.6
>>> quantitative_result("Cc1ccc(S(=O)(=O)N(CC(O)COc2ccccc2)c2c(F)c(F)cc(F)c2F)cc1 (stereo not given)")
30.8
>>> quantitative_result("COc1ccc(-c2nn(-c3cccc(Cl)c3)cc2/C=C2\\NC(=S)N(c3ccc(Cl)cc3)C2=O)cc1")
11

* * *

System: HCT-116 colon
Assay: NCI tumour cell line growth inhibition, 48 h
measured endpoint: TGI

>>> result("O=C(Nc1ccccc1)c1cc2ccccc2c(N=Nc2cccc([N+](=O)[O-])c2)c1O")
"> 100 µM"
>>> result("C[C@@H]1C[C@H]2OC(=O)[C@@]3(C)CCC[C@@](C)([C@@H]23)[C@@]1(O)CCc1ccoc1")
"> 100 µM"
>>> result("CC1(CO)C(O)CCC2(C)C1CCC1CC3CC12CCC3(O)CO (centres undefined)")
"> 100 µM"
>>> result("O=C(NC1CCN(Cc2ccccc2)CC1)c1cc(-c2cccnc2)nc2ccc(Cl)cc12")
"26.4 µM"
>>> result("N=c1c2sc3nc4ccccc4n3c2ncn1Cc1ccccc1")
"> 100 µM"
>>> result("Cc1cc2c(cc1Cl)SC(N(c1ccccc1Cl)S(=O)(=O)c1ccc(Br)s1)=NS2(=O)=O")
"34.3 µM"
>>> result("CCN(C(=O)N1CCN(c2cc3c(cc2F)c(=O)c(C(=O)O)cn3C2CC2)CC1)c1nc(-c2ccccc2)cs1")
"> 100 µM"
>>> result("O=C(NCCCCCCCCCCCCNC(=O)c1cnc2ccccc2n1)c1cnc2ccccc2n1")
"> 100 µM"
>>> result("Oc1cc(O)c2c(c1)O[C@H](c1ccc(O)c(O)c1)[C@@H](O)C2")
"> 100 µM"
